# System: Escherichia coli TOP10
# EXPERIMENT: shrunken log2 fold change of peptide-encoding DNA abundance (4.5 h post-induction vs induction); higher = less antimicrobial activity (less host growth inhibition)
# PARTICULARS: time post-induction: 4.5 h; library: site-saturation at positions 5, 18, 19, 20
PARAMETER: shrunken log2 fold change
Kindly provide the number alone.

# lookup: shrunken log2 fold change of RRIRGRPPRLPRPRPRPQMLPRP
-0.0638

Return reported shrunken log2 fold change; argument: RRIRIRPPRLPRPRPRPPDAPRP
0.5

Which shrunken log2 fold change reading was recorded for the sequence RRIRHRPPRLPRPRPRPCVGPRP ?
0.116

Given the sequence RRIRRRPPRLPRPRPRPYISPRP , what is its reported shrunken log2 fold change?
-0.485

Need shrunken log2 fold change of RRIRRRPPRLPRPRPRPWHKPRP , thanks.
-0.384

shrunken log2 fold change lookup needed for RRIRFRPPRLPRPRPRPIDYPRP , thanks.
-0.155

GET /values?readout=shrunken log2 fold change&item= RRIRKRPPRLPRPRPRPDWFPRP
0.178

Would you mind telling me what shrunken log2 fold change value was observed for RRIRTRPPRLPRPRPRPLFIPRP ?
-0.746

Could you tell me which shrunken log2 fold change is on file for RRIRKRPPRLPRPRPRPCPDPRP ?
-0.0203

Can you share its shrunken log2 fold change? I mean this sequence: RRIRVRPPRLPRPRPRPTQSPRP
0.332

Return reported shrunken log2 fold change; argument: RRIRLRPPRLPRPRPRPERSPRP
0.293

What shrunken log2 fold change value was documented for this sequence, RRIRRRPPRLPRPRPRPVRLPRP ?
1.08

Reported shrunken log2 fold change, sequence RRIRARPPRLPRPRPRPCWMPRP : ____
-0.102

---

# Tested on: Escherichia coli TOP10
# EXPERIMENT: shrunken log2 fold change of peptide-encoding DNA abundance (4.5 h post-induction vs induction); higher = less antimicrobial activity (less host growth inhibition)
# PARTICULARS: time post-induction: 4.5 h; library: site-saturation at positions 5, 18, 19, 20
We begin with a simple list: items and their reported shrunken log2 fold change.
Just the number.

# example entries with known answers
> print(dat)
               biosequence           system.tested  readout.number
1  RRIRFRPPRLPRPRPRPVGMPRP  Escherichia coli TOP10           0.348
2  RRIRQRPPRLPRPRPRPVWMPRP  Escherichia coli TOP10        -0.00887
3  RRIRKRPPRLPRPRPRPTIPPRP  Escherichia coli TOP10           0.263
4  RRIRPRPPRLPRPRPRPVCGPRP  Escherichia coli TOP10           0.208
5  RRIRARPPRLPRPRPRPGAAPRP  Escherichia coli TOP10             1.1

What measured shrunken log2 fold change is associated with RRIRWRPPRLPRPRPRPERHPRP on Escherichia coli TOP10?
0.277

API: value(readout=shrunken log2 fold change, system=Escherichia coli TOP10) for record RRIRPRPPRLPRPRPRPKEAPRP
-0.0122

Hi! What's the reported shrunken log2 fold change for RRIRIRPPRLPRPRPRPAQMPRP on Escherichia coli TOP10?
-0.0791

---

Overview of reported shrunken log2 fold change across a group of sequences:
# Test system: Escherichia coli TOP10
# EXPERIMENT: shrunken log2 fold change of peptide-encoding DNA abundance (4.5 h post-induction vs induction); higher = less antimicrobial activity (less host growth inhibition)
# PARTICULARS: time post-induction: 4.5 h; library: site-saturation at positions 5, 18, 19, 20
// no unit, no text: just the number

Answered cases to consult:
> print(dat)
               biosequence  readout.number
1  RRIRARPPRLPRPRPRPSHRPRP          0.0188
2  RRIRDRPPRLPRPRPRPTCSPRP           0.112
3  RRIRYRPPRLPRPRPRPVATPRP          -0.281
4  RRIRLRPPRLPRPRPRPIGEPRP          -0.169
5  RRIRERPPRLPRPRPRPEIHPRP         -0.0198

What does the data say about its shrunken log2 fold change? Entry: RRIRERPPRLPRPRPRPDQYPRP
-0.0158

Given the entry RRIRYRPPRLPRPRPRPYICPRP , report its measured shrunken log2 fold change.
-0.234

Suppose we examine the sequence RRIRERPPRLPRPRPRPQMSPRP ; what shrunken log2 fold change value has been reported?
-0.114

Data request, read-out shrunken log2 fold change, for RRIRMRPPRLPRPRPRPVWPPRP
1.07

---

# System: Escherichia coli TOP10
# EXPERIMENT: shrunken log2 fold change of peptide-encoding DNA abundance (4.5 h post-induction vs induction); higher = less antimicrobial activity (less host growth inhibition)
# PARTICULARS: time post-induction: 4.5 h; library: site-saturation at positions 5, 18, 19, 20
PARAMETER: shrunken log2 fold change
Reply: number alone, nothing else.

> print(dat)
                biosequence           system.tested                  parameter  readout.number
 1  RRIRIRPPRLPRPRPRPVADPRP  Escherichia coli TOP10  shrunken log2 fold change          0.0861
 2  RRIRMRPPRLPRPRPRPPLKPRP  Escherichia coli TOP10  shrunken log2 fold change            1.23
 3  RRIRTRPPRLPRPRPRPREHPRP  Escherichia coli TOP10  shrunken log2 fold change           0.327
 4  RRIRLRPPRLPRPRPRPVCDPRP  Escherichia coli TOP10  shrunken log2 fold change         -0.0188
 5  RRIRWRPPRLPRPRPRPSTPPRP  Escherichia coli TOP10  shrunken log2 fold change          0.0706
 6  RRIRQRPPRLPRPRPRPMMKPRP  Escherichia coli TOP10  shrunken log2 fold change         -0.0269
 7  RRIRQRPPRLPRPRPRPCYIPRP  Escherichia coli TOP10  shrunken log2 fold change          -0.191
 8  RRIRIRPPRLPRPRPRPRWDPRP  Escherichia coli TOP10  shrunken log2 fold change           -0.12
 9  RRIRQRPPRLPRPRPRPYYMPRP  Escherichia coli TOP10  shrunken log2 fold change          -0.614
10  RRIRLRPPRLPRPRPRPDKFPRP  Escherichia coli TOP10  shrunken log2 fold change           -0.26

Suppose we examine the sequence RRIRNRPPRLPRPRPRPAWDPRP ; what shrunken log2 fold change value has been reported?
0.151

Could you tell me which shrunken log2 fold change is on file for RRIRCRPPRLPRPRPRPCKCPRP ?
-0.0236

Please look up its shrunken log2 fold change: RRIRMRPPRLPRPRPRPRRAPRP
1.55

What value of shrunken log2 fold change has been recorded for this entry: RRIRMRPPRLPRPRPRPMVGPRP
-0.06

Param item = RRIRNRPPRLPRPRPRPECHPRP ; retrieve measured shrunken log2 fold change.
-0.0505

---

# Tested on: Escherichia coli TOP10
# EXPERIMENT: shrunken log2 fold change of peptide-encoding DNA abundance (4.5 h post-induction vs induction); higher = less antimicrobial activity (less host growth inhibition)
# PARTICULARS: time post-induction: 4.5 h; library: site-saturation at positions 5, 18, 19, 20
Please mark Condition met if the recorded shrunken log2 fold change is equal to or greater than 0.06, and Condition not met if it falls below.

Study these solved cases before continuing.
> print(dat)
               biosequence   class.assignment
1  RRIRFRPPRLPRPRPRPPFKPRP  Condition not met
2  RRIRPRPPRLPRPRPRPRWWPRP  Condition not met
3  RRIRPRPPRLPRPRPRPQGNPRP  Condition not met
4  RRIRWRPPRLPRPRPRPEICPRP      Condition met
5  RRIRFRPPRLPRPRPRPGYNPRP  Condition not met

# bool: shrunken log2 fold change of RRIRFRPPRLPRPRPRPKEYPRP >= 0.06
Condition not met

Is it the case that RRIRSRPPRLPRPRPRPETSPRP has shrunken log2 fold change reaching or exceeding 0.06?
Condition met

Decide: is the reported value of shrunken log2 fold change for RRIRHRPPRLPRPRPRPEKGPRP equal to or greater than 0.06?
Condition not met

---

# Tested on: Escherichia coli TOP10;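 also: peptides expressed intracellularly from a pBAD plasmid library in pooled LB shake-flask culture, induced with 0.3% L-arabinose, DNA abundance read by NGS, three biological replicates, DESeq2 with apeglm shrinkage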
# EXPERIMENT: shrunken log2 fold change of peptide-encoding DNA abundance (4.5 h post-induction vs induction); higher = less antimicrobial activity (less host growth inhibition)
# PARTICULARS: time post-induction: 4.5 h; library: site-saturation at positions 5, 18, 19, 20
Below, each of the sequences is paired with its reported shrunken log2 fold change value.
Response field accepts a number only; no unit should be typed.

Tell me the measured shrunken log2 fold change of RRIRFRPPRLPRPRPRPFDEPRP , please.
-0.983

// shrunken log2 fold change lookup, key: RRIRTRPPRLPRPRPRPIHSPRP
-0.191

Could you tell me which shrunken log2 fold change is on file for RRIRGRPPRLPRPRPRPALQPRP ?
0.333

// returns reported shrunken log2 fold change for input RRIRLRPPRLPRPRPRPGMSPRP
0.0159

Endpoint output: shrunken log2 fold change of RRIRQRPPRLPRPRPRPCTNPRP . Value?
-0.359

Any idea what its shrunken log2 fold change is? The sequence is RRIRPRPPRLPRPRPRPDLNPRP
0.168

For RRIRKRPPRLPRPRPRPEAGPRP , what is its reported shrunken log2 fold change?
1.17

Quick check: shrunken log2 fold change of RRIRQRPPRLPRPRPRPGDKPRP ?
-0.187

Which shrunken log2 fold change value belongs to RRIRQRPPRLPRPRPRPFRQPRP ?
-0.148

# get_value(readout='shrunken log2 fold change', item= RRIRTRPPRLPRPRPRPFYRPRP )
-0.189

Quick one: shrunken log2 fold change for RRIRARPPRLPRPRPRPPRSPRP ?
1.12

I'd like to know its shrunken log2 fold change. The sequence in question is RRIRHRPPRLPRPRPRPAEEPRP
0.175

For the sequence RRIRKRPPRLPRPRPRPDFAPRP , what shrunken log2 fold change is on record?
-0.033

# query: shrunken log2 fold change of entry RRIRMRPPRLPRPRPRPLQRPRP
0.0735
